Test system: SK-N-SH
test: Cell proliferation panel (CellTiter-Glo 2.0, 5 days)
Format: cell-based
conditionSet: Neuroblastoma
metric: pIC50
Answers are plain numbers, as −log10 of the molar value.

// query pIC50 value for entry CCc1nn(C)c2c1/C=C/c1n[nH]c3ccc(cc13)-c1cnn(C)c1OCCN(C)C2=O [Ex. 6]
7.66

---

studyTarget: FLT3 (D835Y) (Homo sapiens (Human), UniProt P36888, D835Y)
test: KINOMEscan binding assay (Eurofins DiscoveRx)
Experimental: For most kinases, kinase-tagged T7 phage strains were prepared in an E. coli host derived from the BL21 strain. E. coli were grown to log-phase and infected with T7 phage and incubated with shaking at 32° C. until lysis. The lysates were centrifuged and filtered to remove cell debris. […] Kds were determined using an 11-point 3-fold compound dilution series with three DMSO control points. […] The kinase concentration in the eluates was measured by qPCR. […]
metric: Kd (nM)
One number for each entry, in nM.

// query Kd value for entry `CCc1nn(C)c2c1/C=C/c1n[nH]c3ccc(cc13)-c1cnn(C)c1OCCN(C)C2=O`
4.1
